- experiment.summary: Metabolic stability in mouse liver microsomes assessed as compound remaining at 3 uM after 10 mins
- Format: ADME, Microsome
- measurement.parameters: read-out: Stability
Recorded remaining at 10 min, 3 µM values for a group of compounds are listed next.

| compound | remaining at 10 min, 3 µM / % |
| --- | --- |
| O=C(NC(Cc1ccccc1)(c1cccc(C(F)(F)F)c1)c1ccccn1)c1ccc(F)c(C(F)(F)F)c1 (centres undefined) | 68 |
| O=C(NC1CCCC1)N[C@@](Cc1ccccc1)(c1cc(F)cc(OC(F)(F)C(F)F)c1)c1ccc(Cl)cn1 | 10 |
| O=C(N[C@@](Cc1ccccc1)(c1cc(F)cc(OC(F)(F)C(F)F)c1)c1ccc(Cl)cn1)c1ccc(F)c(C(F)(F)F)c1 | 100 |
| O=C(NC1CCCC1)NC(Cc1ccccc1)(c1cccc(C(F)(F)F)c1)c1ccccn1 (centres undefined) | 2 |

* * *

- measurement.target: Cholesteryl ester transfer protein (Homo sapiens)
- experiment.summary: Inhibition of CETP-mediated [3H]cholesteryl ester transfer activity in human plasma after 2.5 hrs by scintillation counter

| compound | unit | IC50 |
| --- | --- | --- |
| O=C(NC1CCCC1)NC(Cc1ccccc1)(c1cccc(C(F)(F)F)c1)c1ccc(Cl)cn1 (racemic) | µM | 16 |
| C=CC[C@](NC(=O)NC1CCCC1)(c1cc(F)cc(C(F)(F)F)c1)c1ccc(Cl)cn1 | µM | 7.1 |
| O=C(NC1CCCC1)NC(Cc1ccccc1)(c1cccc(C(F)(F)F)c1)c1ccccn1 (stereo not drawn) | µM | 25 |
| O=C(NC1CCCC1)NC(Cc1ccccc1)(c1cccc(C(F)(F)F)c1)c1ccc(F)cn1 (racemic) | µM | 6.9 |
| O=C(N[C@@](Cc1ccccc1)(c1cc(F)cc(OC(F)(F)C(F)F)c1)c1ccc(Cl)cn1)c1ccc(F)c(C(F)(F)F)c1 | µM | 3.6 |
| Cc1csc(C[C@](NC(=O)NC2CCCC2)(c2cc(F)cc(C(F)(F)F)c2)c2ccc(Cl)cn2)n1 | µM | 24 |
| Cc1nc(C[C@](NC(=O)NC2CCCC2)(c2cc(F)cc(C(F)(F)F)c2)c2ccc(Cl)cn2)no1 | µM | 34 |
| O=C(NC(Cc1ccccc1)(c1cccc(C(F)(F)F)c1)c1ccccn1)c1ccc(F)c(C(F)(F)F)c1 (stereo not drawn) | µM | 15 |

* * *

- measurement.target: Cholesteryl ester transfer protein (Homo sapiens, UniProt P11597)
- Sequence (P11597 whole entry): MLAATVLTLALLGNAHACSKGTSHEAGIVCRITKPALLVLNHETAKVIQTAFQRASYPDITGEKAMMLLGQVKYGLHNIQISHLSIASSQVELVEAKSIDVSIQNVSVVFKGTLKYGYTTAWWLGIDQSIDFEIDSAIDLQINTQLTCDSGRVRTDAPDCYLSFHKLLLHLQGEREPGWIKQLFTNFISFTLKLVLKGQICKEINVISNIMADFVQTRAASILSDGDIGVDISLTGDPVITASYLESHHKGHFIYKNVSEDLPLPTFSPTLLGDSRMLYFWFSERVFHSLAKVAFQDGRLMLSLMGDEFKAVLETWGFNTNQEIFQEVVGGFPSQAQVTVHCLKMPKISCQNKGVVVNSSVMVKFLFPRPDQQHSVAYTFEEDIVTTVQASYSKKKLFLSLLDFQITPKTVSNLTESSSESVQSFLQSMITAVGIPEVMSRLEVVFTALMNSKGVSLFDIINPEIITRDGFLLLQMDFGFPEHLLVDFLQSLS
- experiment.summary: Inhibition of human recombinant CETP-mediated [3H]cholesteryl ester transfer from HDL to biotinylated LDL by scintillation proximity assay
pIC50: −log10 of the molar value.
Use satisfied when the recorded pIC50 is no lower than 6; use not satisfied when it is lower.

| molecule | class.assignment |
| --- | --- |
| O=C(NC(Cc1ccccc1)(c1cccc(C(F)(F)F)c1)c1ccccn1)c1ccccc1 (stereo unspecified) | not satisfied |
| O=C(N[C@@](Cc1ccccc1)(c1cc(F)cc(OC(F)(F)C(F)F)c1)c1ccc(Cl)cn1)c1ccc(F)c(C(F)(F)F)c1 | satisfied |
| O=C(NC1CCCC1)N[C@@](Cc1ccccc1F)(c1cc(F)cc(C(F)(F)F)c1)c1ccc(Cl)cn1 | satisfied |
| O=C(NC(Cc1ccccc1)(c1cccc(C(F)(F)F)c1)c1ccccn1)c1ccc(F)c(C(F)(F)F)c1 (stereo unspecified) | not satisfied |
| N#Cc1ccc([C@@](Cc2ccccc2)(NC(=O)NC2CCCC2)c2cc(F)cc(C(F)(F)F)c2)nc1 | satisfied |
| O=C(NC1CCCC1)NC(Cc1ccccc1)(c1ccc(Cl)nc1)c1cc(F)cc(C(F)(F)F)c1 (racemic) | satisfied |
| Cc1ccc(C[C@](NC(=O)NC2CCCC2)(c2cc(F)cc(C(F)(F)F)c2)c2ccc(Cl)cn2)cc1 | satisfied |
| O=C(NC1CCCC1)N[C@@](Cc1ccccn1)(c1cc(F)cc(C(F)(F)F)c1)c1ccc(Cl)cn1 | not satisfied |
| CC(C)(C)NC(=O)NC(Cc1ccccc1)(c1cccc(C(F)(F)F)c1)c1ccccn1 (stereo unspecified) | not satisfied |
| CC(C)(C)CC(=O)O[C@@](Cc1ccccc1)(c1cccc(C(F)(F)F)c1)c1ccccn1 | not satisfied |
| COC(=O)C[C@](NC(=O)NC1CCCC1)(c1cc(F)cc(C(F)(F)F)c1)c1ccc(Cl)cn1 | not satisfied |
| O=C(NC1CCCC1)N[C@@](Cc1ccccc1)(c1cc(F)cc(C(F)(F)F)c1)c1ccc(F)cn1 | satisfied |
| CC(C)(C)CC(=O)NC(Cc1ccccc1)(c1cccc(C(F)(F)F)c1)c1ccccn1 (stereo unspecified) | not satisfied |
| COc1ccc([C@@](Cc2ccccc2)(NC(=O)NC2CCCC2)c2cc(F)cc(C(F)(F)F)c2)cn1 | satisfied |
| O=C(NC(Cc1ccccc1)(c1cccc(C(F)(F)F)c1)c1ccccn1)c1cccc(C(F)(F)F)c1 (stereo unspecified) | not satisfied |
| C=CC[C@](NC(=O)NC1CCCC1)(c1cc(F)cc(C(F)(F)F)c1)c1ccc(Cl)cn1 | satisfied |
| O=C(NC(Cc1ccccc1)(c1cccc(C(F)(F)F)c1)c1ccccn1)c1ccc(F)cc1 (stereo unspecified) | not satisfied |
| O=C(NC1CCCC1)NC(Cc1ccccc1)(c1cccc(OC(F)(F)C(F)F)c1)c1ccc(Cl)cn1 (racemic) | satisfied |
| O=C(NC1CCCC1)NC(Cc1ccccc1)(c1cccc(C(F)(F)F)c1)c1ccc(F)cn1 (racemic) | satisfied |
| O=C(NC1CCCC1)N[C@@](Cc1ccc(F)cc1)(c1cc(F)cc(C(F)(F)F)c1)c1ccc(Cl)cn1 | satisfied |
| CC(C)(C)CC(=O)O[C@](Cc1ccccc1)(c1cccc(C(F)(F)F)c1)c1ccccn1 | not satisfied |
| CC(C)(C)CC(=O)OC(Cc1ccccc1)(c1cccc(C(F)(F)F)c1)c1ccccn1 (racemic) | not satisfied |

* * *

- measurement.target: Cholesteryl ester transfer protein (Homo sapiens)
- experiment.summary: Inhibition of CETP-mediated [3H]cholesteryl ester transfer activity in human plasma after 2.5 hrs by scintillation counter
endpoint.name: log10 IC50 (log10 of the value in µM)

| compound | log10 IC50 |
| --- | --- |
| CC(C)(C)NC(=O)NC(Cc1ccccc1)(c1cccc(C(F)(F)F)c1)c1ccccn1 (configuration not stated) | 1.92 |
| COc1ccc([C@@](Cc2ccccc2)(NC(=O)NC2CCCC2)c2cc(F)cc(C(F)(F)F)c2)cn1 | 0.53 |
| Cc1ccc(C[C@](NC(=O)NC2CCCC2)(c2cc(F)cc(C(F)(F)F)c2)c2ccc(Cl)cn2)cc1 | 0.53 |
| CC(C)(C)CC(=O)O[C@@](Cc1ccccc1)(c1cccc(C(F)(F)F)c1)c1ccccn1 | 1.41 |
| O=C(NC1CCCC1)NC(Cc1ccccc1)(c1ccc(Cl)nc1)c1cc(F)cc(C(F)(F)F)c1 (racemic) | 1.08 |
| O=C(NC1CCCC1)NC(Cc1ccccc1)(c1cccc(OC(F)(F)F)c1)c1ccc(Cl)cn1 (racemic) | 0.43 |

* * *

- measurement.target: Cholesteryl ester transfer protein (Homo sapiens)
- experiment.summary: Inhibition of human recombinant CETP-mediated [3H]cholesteryl ester transfer from HDL to biotinylated LDL by scintillation proximity assay
pIC50: −log10 of the molar value.
endpoint.name: pIC50

| molecule | endpoint.name | qualifier.operator | data.value |
| --- | --- | --- | --- |
| O=C(NC1CCCC1)NC(Cc1ccccc1)(c1cccc(OC(F)(F)F)c1)c1ccc(Cl)cn1 (racemic) | pIC50 | = | 7.51 |
| O=C(NC1CCCC1)N[C@@](Cc1ncn[nH]1)(c1cc(F)cc(C(F)(F)F)c1)c1ccc(Cl)cn1 | pIC50 | < | 4.02 |
| CC(C)(C)CC(=O)OC(Cc1ccccc1)(c1cccc(OC(F)(F)C(F)F)c1)c1ccccn1 (racemic) | pIC50 | = | 5.96 |
| O=C(NC1CCCC1)NC(Cc1ccccc1)(c1cccc(C(F)(F)F)c1)c1ccc(Cl)cn1 (racemic) | pIC50 | = | 6.51 |

* * *

- experiment.summary: Plasma concentration in moderately fat-fed golden Syrian hamster at 30 mg/kg, po qd administered for 3 days measured at 2 hrs post last dose
- Assay type: ADME, organism-based, Mesocricetus auratus
- Set-up: dose 30 mg/kg, route oral

| molecular.string | concentration at 2 h, µM |
| --- | --- |
| O=C(N[C@@](Cc1ccccc1)(c1cc(F)cc(OC(F)(F)C(F)F)c1)c1ccc(Cl)cn1)c1ccc(F)c(C(F)(F)F)c1 | 21 |

* * *

- experiment.summary: Half life in telemeterized rat up to 60 mg/kg, po
- Assay type: ADME, organism-based
- Set-up: dose 60 mg/kg, route oral
- measurement.parameters: in vivo

| molecular.string | unit | half-life |
| --- | --- | --- |
| O=C(N[C@@](Cc1ccccc1)(c1cc(F)cc(OC(F)(F)C(F)F)c1)c1ccc(Cl)cn1)c1ccc(F)c(C(F)(F)F)c1 | h | 14 |

Origin of the recorded values: ChEMBL document CHEMBL2163208
